Catalogue of compounds with associated AUC
assay: Bioavailability studies (pharmacokinetics after oral and intraarterial administration); assay type: in vivo, rat; settings: Wistar (Crl:WI), rat, plasma, po; male Wistar rats, 3 mg/kg p.o., cross-over design; read-out: Mean AUC p.o.
Please answer in the form of a number followed by its unit of measurement.

Recorded AUC, per entry:
1. NCc1c(-c2ccc(Cl)cc2Cl)ncn1Cc1cccnc1 [Example 121b] :: 230 ng·h/mL
2. NCc1c(-c2ccc(Cl)cc2Cl)ncn1Cc1ccccc1 [Example 24b] :: 390 ng·h/mL
3. NCc1c(-c2ccc(Cl)cc2Cl)ncn1Cc1ccsc1 [Example 130b] :: 1270 ng·h/mL

Identify AUC associated with the compound NCc1c(-c2ccc(Cl)cc2Cl)ncn1Cc1ccccn1 [Example 39b]
140 ng·h/mL

Measured values drawn from patent US7728146B2 for this set.
